- targetDesc: T1, thrombopoietin receptor c-Mpl (human, UniProt P40238 26-635)
- T1 sequence (looked up): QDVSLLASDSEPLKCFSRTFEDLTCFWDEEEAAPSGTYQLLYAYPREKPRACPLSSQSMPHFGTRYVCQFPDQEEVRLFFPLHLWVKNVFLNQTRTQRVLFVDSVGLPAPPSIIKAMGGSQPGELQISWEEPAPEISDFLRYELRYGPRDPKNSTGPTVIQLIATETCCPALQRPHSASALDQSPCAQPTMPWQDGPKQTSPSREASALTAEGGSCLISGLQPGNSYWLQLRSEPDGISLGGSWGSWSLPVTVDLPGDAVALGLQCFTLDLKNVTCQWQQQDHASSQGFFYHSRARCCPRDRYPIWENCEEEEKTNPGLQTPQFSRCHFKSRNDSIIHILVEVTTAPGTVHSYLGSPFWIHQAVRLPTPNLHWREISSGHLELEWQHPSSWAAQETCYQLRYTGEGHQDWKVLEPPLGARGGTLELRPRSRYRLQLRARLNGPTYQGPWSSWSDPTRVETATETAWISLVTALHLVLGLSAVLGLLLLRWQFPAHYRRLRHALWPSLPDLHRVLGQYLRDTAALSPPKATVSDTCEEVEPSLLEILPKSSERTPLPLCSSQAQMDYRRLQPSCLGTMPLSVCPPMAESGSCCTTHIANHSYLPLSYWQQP
- measurementDescription: cell-based or functional assay
Positions of bridges follow the written chain, without caps; N, C: chain ends. No end group written: not given here.
Would you kindly list relative CREB phosphorylation level (pCREB ELISA, HEL cells) for each of these binders?
Answers are plain numbers, in %.

Known relative CREB phosphorylation level (pCREB ELISA, HEL cells) results, listed for orientation:
INSERT INTO assay_data (binder, unit, recordedmeasurement) VALUES
  ('GGCADGPTLREWISFCGGGGGGSGGGGGCADGPTLREWISFCGG (disulfide 3-16, 29-42) [TPO2-GS8]', '%', 121),
  ('TPO2-PAS49 (two disulfide bonds in the molecule) peptide: GGCADGPTLREWISFCGGAAPAAPAPAAPAAPAPAAPAAPAPAAPAAPAPAAPAAPAPAAPAAPAPAGGCADGPTLREWISFCGG', '%', 131),
  ('GGCADGPTLREWISFCGGAAPAAPAPGGCADGPTLREWISFCGG (disulfide 3-16, 29-42) [TPO2-PAS8]', '%', 136);

Measured relative CREB phosphorylation level (pCREB ELISA, HEL cells), TPO2-PAS100 (two disulfide bonds in the molecule) peptide: GGCADGPTLREWISFCGGAAPAAPAPAAPAAPAPAAPAAPAPAAPAAPAPAAPAAPAPAAPAAPAPAAPAAPAPAAPAAPAPAAPAAPAPAAPAAPAPAAPAAPAPAAPAAPAPAAPAGGCADGPTLREWISFCGG : 112
